Value source: PubChem BioAssay (NCATS)

Test system: HACAT
Assay: qHTS assay to identify novel small-molecules to repurpose for Merkel cell carcinoma treatment (AID 1296009); further: nearly all actives have a fitted effect of over 60% in size
Conditions: MCC and control cell lines, CellTiter-Glo viability, 72 h; at 44.8 µM (top of the series) unless noted
Records with an inconclusive call do not appear. Active and inactive are the calls of the source. The call rests on the fitted dose curve; in most records, active means well fitted inhibition curve with a large enough effect; inconclusive means small, poorly fitted or top-dose-only effect; inactive means flat fitted curve, though single readings scatter.
value.kind: outcome

| compound | value.kind | test.value |
| --- | --- | --- |
| C=C1CC/C=C(/CO)C(=O)C[C@@H]2[C@@H]1CC2(C)C | outcome | inactive |
| O=C(c1ccc(C#Cc2cccc(F)c2)cn1)N1CC2CC2C1 (stereo not given) | outcome | inactive |
| Cc1cn2c(N)c(Cl)cc(C(=O)NCC3CCN(CC(C)C)CC3)c2n1 | outcome | inactive |

----------
System: Zika virus NS2B-NS3 protease (unlinked complex)
Experiment: Primary screen GU Rhodamine qHTS for Zika virus inhibitors: Unlinked NS2B-NS3 protease assay (AID 1347159); further: nearly all actives have a fitted effect of over 60% in size
Conditions: Recombinant ZIKV NS2B-NS3 protease, Rhodamine110 substrate fluorescence; series mostly up to 107 µM
Records with an inconclusive call do not appear. Activity calls are given as the source filed them. The call rests on the fitted dose curve; in most records, active means well fitted inhibition curve with a large enough effect; inconclusive means small, poorly fitted or top-dose-only effect; inactive means no such curve, though single readings can be large or run the other way.
Labels: label 1 (active), label 0 (inactive)

| molecule | label.value |
| --- | --- |
| COc1cc2c(Nc3ccc(Cl)c(Cl)c3F)ncnc2cc1OCC1C[C@@H]2CN(C)C[C@@H]2C1 (stereo not given in full) | label 0 |
| CC1=CCC2C(C)(CO)CCCC2(CO)C1CO (stereo not given) | label 1 |
| COC(=O)C[C@@H]1C(C(=O)O)=CO[C@@H](O[C@@H]2O[C@H](CO)[C@@H](O)[C@H](O)[C@H]2O)/C1=C\COC(=O)/C=C\c1ccccc1 | label 0 |
| C=C1C[C@]23C[C@H]1CC[C@H]2[C@]1(C)CCC[C@@]2(CO)C(=O)O[C@H]([C@H]21)[C@@H]3O | label 0 |
| CC(C)(C)NCC(O)COc1cccc2c1CCCC2=O (stereo not given) | label 0 |
| O=C(/C=C/c1ccc(O)cc1)OC[C@H]1O[C@@H](OC(=O)/C=C/c2ccccc2)[C@H](O)[C@@H](O)[C@@H]1O | label 0 |
| CC(C)[C@H]1CCC(CO)=C[C@@H]1/C=C(\CO)C(=O)O | label 0 |
| CC1OC(OC2C(O)C(C(=O)O)OC(OC3CCC4(C)C(CCC5(C)C4C=CC4=C6CC(C)(C)CC(O)C6(C)CCC45C)C3(C)C)C2OC2OCC(O)C(O)C2O)C(O)C(O)C1O (stereo not given) | label 1 |
| C[C@@H]1CC[C@]2(C(=O)O)CC[C@]3(C)C(=CCC4[C@]5(C)C(CC[C@]43C)C(C)(C)[C@@H](O)[C@H](O)[C@@H]5O)C2[C@]1(C)O (stereo not given in full) | label 0 |
| CCOC(=O)[C@H](CCc1ccccc1)CC1(C(=O)N[C@H]2CCc3ccccc3N(CC(=O)O)C2=O)CCCC1 | label 0 |

----------
Assay: Primary fluorescence-based thiol-reactive (MSTI) qHTS assay for identification of artifact compounds. (AID 1845221);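 further: thiol-reactive compounds lower the probe fluorescence signal; nearly all actives have a fitted effect of over 65% in size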
Conditions: MSTI thiol-reactivity probe, 1 h; series mostly up to 53.8 µM
Records with an inconclusive call do not appear. Calls of active or inactive are those of the source. Calls follow the shape of the dose curve; as a rule, active = well fitted inhibition curve with a large enough effect; inconclusive = small, poorly fitted or top-dose-only effect; inactive = no such curve, though single readings can be large or run the other way.
Recorded activity change, negative = thiol reactive by entry
value.kind: activity change, negative = thiol reactive

| compound | test.value |
| --- | --- |
| CC(C)CC1(C(=O)OCc2ccc(O[C@@H]3O[C@H](CO)[C@@H](O)[C@H](O)[C@H]3O)cc2)CC(=O)OC(C(=O)O)CC(=O)OCC2OC(O1)C(OC(=O)/C=C/c1ccc(O)cc1)C(O)C2O (stereo partly specified) | 14.7% [at 11.5 µM] (inactive) |
| C[C@@H]1O[C@@H](O[C@H]2[C@H](O)[C@@H](C(=O)O)O[C@@H](O[C@H]3CC[C@@]4(C)C(CC[C@]5(C)C4CC=C4C6CC(C)(C)CC[C@]6(C(=O)O)CC[C@]45C)C3(C)C)[C@@H]2O[C@@H]2O[C@H](CO)[C@@H](O)[C@H](O)[C@H]2O)[C@H](O)[C@H](O)[C@H]1O (stereo partly specified) | 296% [at 11.5 µM] (inactive) |
| CCC/C=C/C(=O)O[C@H]1CC(C)(C)CC2[C@]13[C@H](O)O[C@@]21CCC2[C@@]4(C)CC[C@H](O[C@@H]5O[C@H](C(=O)O)[C@@H](O)[C@H](O[C@@H]6O[C@H](CO)[C@H](O)[C@H](O)[C@H]6O[C@@H]6O[C@@H](C)[C@H](O)[C@@H](O)[C@H]6O[C@@H]6OC[C@](O)(CO)[C@H]6O)[C@H]5O[C@@H]5O[C@H](CO)[C@H](O)[C@H](O)[C@H]5O)C(C)(C)C4CC[C@@]2(C)[C@]1(C)C[C@H]3OC(C)=O (stereo partly specified) | 179% [at 11.5 µM] (inactive) |
| C[C@@H]1O[C@@H](O[C@H]2[C@H](O)[C@@H](O)[C@H](OC[C@H]3O[C@@H](OC(=O)[C@]45CCC(C)(C)C[C@H]4C4=CCC6[C@@]7(C)C[C@H](O)[C@H](O[C@@H]8O[C@H](CO)[C@@H](O)[C@H](O)[C@H]8O)[C@@](C)(C(=O)O)C7CC[C@@]6(C)[C@]4(C)CC5)[C@H](O[C@@H]4O[C@H](CO)[C@@H](O)[C@H](O)[C@H]4O)[C@@H](O)[C@@H]3O)O[C@@H]2CO)[C@H](O)[C@H](O)[C@H]1O (stereo partly specified) | 1.9% [at 11.5 µM] (inactive) |
| C=C(C)C(C)C1OC23CC4(CO2)C(CCC2C5(C)CCC(OC6OCC(O)C(OC7OC(CO)C(O)C(OC8OCC(O)C(O)C8O)C7O)C6OC6OC(CO)C(O)C6O)C(C)(C)C5CCC24C)C3C(C)(O)C1OC(C)=O (stereo unspecified) | 644% [at 11.5 µM] (inactive) |
| C[C@@H]1O[C@@H](O[C@@H]2[C@@H](O)[C@H](O[C@@H]3[C@@H](O)[C@@H](O)[C@H](O[C@H]4[C@H](OC(=O)[C@]56CCC(C)(C)C[C@H]5C5=CCC7[C@@]8(C)C[C@H](O)[C@H](O[C@@H]9O[C@H](C(=O)O)[C@@H](O)[C@H](O)[C@H]9O)[C@@](C)(CO)C8[C@H](O)C[C@@]7(C)[C@]5(C)CC6)OC[C@H](O)[C@@H]4O)O[C@H]3C)OC[C@H]2O)[C@H](O)[C@H](O)[C@H]1O (stereo partly specified) | 319% [at 11.5 µM] (inactive) |
